# Lookup of reported inhibition keyed by entry
test: growth inhibition, single agents and combos, HTB85, cell-based, BGB or cisplatin IC20 combos, synergistic combos for chromothripsis tumors (AID 1671453); conditions: HTB85 osteosarcoma cells, drug combinations, measured here: with cisplatin IC20, at 0.5 µM, stronger effect = higher value;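 also: cells exposed for 96 hours before readout; 0% = vehicle DMSO and 100% = high DMSO killing control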
Non-standard residues stand in square brackets, D forms with d. Residues, ends and D or L forms follow the SMILES beside them. Dolaproine = CO[C@@H]([C@@H]1CCCN1)[C@@H](C)C(=O)O; Dil = CC[C@H](C)[C@H](NC)[C@@H](CC(=O)O)OC; NMeV = CN[C@H](C(=O)O)C(C)C
assay_readout: inhibition (%)

{"columns": ["molecule", "assay_readout", "assay_result"],
 "data": [
  ["CC1CNC(=O)NC1=O (configuration not stated)", "inhibition", -36.4],
  ["Cc1cc(C=CC#N)cc(C)c1Nc1ccnc(Nc2ccc(C#N)cc2)n1", "inhibition", -28.3],
  ["C=C(C)C1CCC2(C(=O)O)CCC3(C)C(CCC4C5(C)CCC(O)C(C)(C)C5CCC43C)C12 (configuration not stated)", "inhibition", -4.54],
  ["Cn1cnc2[nH]c(=O)[nH]c(=O)c21", "inhibition", 0.051],
  ["CO[C@H]1/C=C/O[C@@]2(C)Oc3c(C)c(O)c4c(O)c(c5c(c4c3C2=O)=NC2(CCN(CC(C)C)CC2)N=5)NC(=O)/C(C)=C\\C=C\\[C@H](C)[C@H](O)[C@@H](C)[C@@H](O)[C@@H](C)[C@H](OC(C)=O)[C@@H]1C", "inhibition", -4.7],
  ["C#CCC(CCCCCC)C(=O)O (configuration not stated)", "inhibition", -9.52],
  ["C[C@@H]1COCCN1c1cc(C2(S(C)(=O)=O)CC2)nc(-c2cccc3[nH]ccc23)n1", "inhibition", 29.2],
  ["NC(=O)c1cccc2[nH]c(-c3ccc(C4CCCN4)cc3F)nc12 (configuration not stated)", "inhibition", 2.33],
  ["CCC(Sc1nnc2c3ccccc3n(CC)c2n1)C(=O)Nc1ccccc1OC (configuration not stated)", "inhibition", -8.64],
  ["COc1ccc(-c2nc(-c3cc(C(F)(F)F)cc(C(F)(F)F)c3)n(Cc3ccc(C(N)=O)cc3)c2-c2ccc(OC)cc2)cc1", "inhibition", -32.4],
  ["CCC1(O)C(=O)OCc2c1cc1n(c2=O)Cc2cc3cc(O)ccc3nc2-1 (configuration not stated)", "inhibition", 97.8],
  ["NC(=O)c1ncn(C2OC(CO)C(O)C2O)c1O (configuration not stated)", "inhibition", -13.3],
  ["O=C(CCCCCCC(=O)NO)NO", "inhibition", -13.1],
  ["CC(C=CC(=O)NO)=CC(C)C(=O)c1ccc(N(C)C)cc1 (configuration not stated)", "inhibition", 99.9],
  ["C[C@H](NC(=O)c1ccccc1N=Cc1c(O)ccc2ccccc12)c1ccccc1", "inhibition", -9.86],
  ["C=C1C(=O)O[C@@H]2C=C(C)CCC=C(C)CC[C@@H]12", "inhibition", -4.05],
  ["Nc1nc(NC2CC2)cc(-c2cccc(Cl)c2Cl)n1", "inhibition", -38.1],
  ["O=C(O)c1cc2cccc([N+](=O)[O-])c2[nH]1", "inhibition", -7.91],
  ["CC[C@H](C)[C@@H]([C@@H](CC(=O)N1CCC[C@H]1[C@H](OC)[C@@H](C)C(=O)N[C@@H](Cc1ccccc1)C(=O)O)OC)N(C)C(=O)[C@@H](NC(=O)[C@@H](NC)C(C)C)C(C)C (H-[NMeV]V[Dil][Dolaproine]F-OH)", "inhibition", 20.4],
  ["Cc1c(Br)cc(NCC(=O)N/N=C/c2cc([N+](=O)[O-])ccc2O)cc1Br", "inhibition", -24.4],
  ["CC1OC(CC(=O)O)CC2=C1C(=O)c1c(O)cccc1C2=O (configuration not stated)", "inhibition", 99.9],
  ["NC(=O)c1cccc2cn(-c3ccc(C4CCCNC4)cc3)nc12 (configuration not stated)", "inhibition", -25.1],
  ["C[C@@H]1O[C@@H](O[C@@H]2[C@@H](O)[C@H](OCCc3ccc(O)c(O)c3)O[C@H](CO)[C@H]2OC(=O)C=Cc2ccc(O)c(O)c2)[C@H](O)[C@H](O)[C@H]1O", "inhibition", -24.2],
  ["C[n+]1ccc(-c2c3nc(c(-c4cc[n+](C)cc4)c4ccc([nH]4)c(-c4cc[n+](C)cc4)c4nc(c(-c5cc[n+](C)cc5)c5ccc2[nH]5)C=C4)C=C3)cc1", "inhibition", -29.2],
  ["CCC(C)C(=O)OC1CC(C)C=C2C=CC(C)C(CCC3CC(O)CC(=O)O3)C21 (configuration not stated)", "inhibition", -1.27],
  ["CC(C)C(=O)SCCCCCCC(=O)Nc1nc(-c2ccccc2)cs1", "inhibition", -21.4],
  ["O=C(CCCCCCC(=O)Nc1ccc(I)cc1)NO", "inhibition", -7.38],
  ["C=CC1=C(C)C2=CC3=NC(=C(CC(=O)O)C4=NC(=C(C)C4=C(O)O)C=c4[nH]c(c(C)c4CC)=CC1=N2)C(CCC(=O)O)C3C (configuration not stated)", "inhibition", -27.9],
  ["Nc1ccccc1NC(=O)c1cnccn1", "inhibition", -15.5],
  ["Nc1ncn(C2OC(CO)C(O)C2O)c(=O)n1 (configuration not stated)", "inhibition", -13.1],
  ["CON=C1CN(c2nc3c(cc2F)c(=O)c(C(=O)O)cn3C2CC2)CC1CN (configuration not stated)", "inhibition", -15.5],
  ["CC1CN(c2c(F)c(N)c3c(=O)c(C(=O)O)cn(C4CC4)c3c2F)CC(C)N1 (configuration not stated)", "inhibition", -9.9],
  ["O=C(CCSc1nc2ccccc2c(=O)[nH]1)NC1CCC(c2nnc(-c3ccccc3)o2)CC1 (configuration not stated)", "inhibition", 5.46],
  ["Cc1cc(C)cc(C(=O)NOCCCCCC(=O)NO)c1", "inhibition", 32.1],
  ["CC(C)(C#N)c1ccc(N2C(=O)OCc3cnc4ccc(-c5cnc6ccccc6c5)cc4c32)cc1", "inhibition", -23.6],
  ["O=c1ccn(C2CC(O)C(CO)O2)c(=O)[nH]1 (configuration not stated)", "inhibition", -5.42],
  ["Cc1cn(C2C=CC(CO)O2)c(=O)[nH]c1=O (configuration not stated)", "inhibition", -25.1]
]}
